meta.source: PubChem BioAssay (NCI)

- System: HT29 colon
- METHOD: NCI-60 one-dose screen, 48 h (100 = growth as untreated, 0 = no growth, -100 = all killed)
- COND: 10 µM unless noted
The panel holds about 83,000 compounds, 20% with a hit somewhere; the sample as a whole holds those more often. Activity calls are given as the source filed them. How the source made its calls: active means growth percent below 10; inactive means the rest.
Overview of reported growth across a group of molecules:

Consider the reported growth for these molecules:
> print(dat)
                                 cpd.smiles             measured.value
1                    COc1ccc2c(ccc[n+]2C)c1             93% (inactive)
2  CN(C)CCOC(=O)Nc1ccc(Cc2ccc(NC(=O)OCCN(C)C)cc2)cc1  14.5% [100 µM] (inactive)
3                              CCNCC(C)(C)O            109% (inactive)

Query: Tell me the measured growth of `O=C(O)Cc1ccccn1` , please.
Result: 103% (inactive)

Query: And then `COc1cccc(C(=O)O)c1OC` , what is it?
Result: 96.8% (inactive)

Query: Consider next the molecule `NC(=O)OCCO` in the same way.
Result: 99% (inactive)
